Target: UniProt:A0A045ISB3
Sequence (A0A045ISB3 whole entry): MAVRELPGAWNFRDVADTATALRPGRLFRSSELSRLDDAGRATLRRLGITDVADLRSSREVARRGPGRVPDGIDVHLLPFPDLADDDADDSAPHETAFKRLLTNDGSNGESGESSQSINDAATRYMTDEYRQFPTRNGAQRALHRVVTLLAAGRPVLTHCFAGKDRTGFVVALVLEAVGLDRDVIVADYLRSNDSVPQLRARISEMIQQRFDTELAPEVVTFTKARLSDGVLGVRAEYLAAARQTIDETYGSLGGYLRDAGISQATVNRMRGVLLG
Assay: Inhibition of Mycobacterium tuberculosis H37Rv ptpB expressed in Escherichia coli BL21 (DH3) cells using 6,8-difluoromethylumbelliferyl phosphate as substrate incubated for 30 mins by fluorescence based assay
Details: read-out: IC50
ASSAY_METRIC: IC50 (µM)
API: value field is a number in µM; no unit string.

The compound listed as CC[C@H](C)C[C@H](C)C[C@@H]1CO[C@@H](\C(C)=C/C(=C/C=C/CC(=O)O)C(=O)O)[C@H](C)C1 shows IC50 equal to 12

The compound listed as CC[C@H](C)C[C@H](C)C[C@H](CO)C[C@@H](C)/C=C(C)/C=C(C)/C=C/C=C/C(=O)N1CCCC(O)C1=O (stereo partly specified) shows IC50 equal to 11

The compound listed as CC[C@H](C)C[C@H](C)C[C@@H]1CO[C@@H](/C(C)=C/C(=C\C=C\CC(=O)O)C(=O)O)[C@H](C)C1 shows IC50 equal to 5.1

The compound listed as CC[C@H](COC(C)=O)C[C@H](C)C[C@H](C)C[C@@H](C)/C=C(C)/C=C(/C=C/C=C/C(=O)O)C(=O)O shows IC50 equal to 4
